Please provide measured IC50, inhibition of 500 pM hC5a in HEK293/Gα16/hC5aR1/NFAT-luc cells for the entries that follow.
Molecular target: T1, hC5a (human, UniProt P01031 678-751)
T1 sequence (looked up): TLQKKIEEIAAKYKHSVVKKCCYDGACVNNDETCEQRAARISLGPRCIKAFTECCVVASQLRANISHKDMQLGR
Test: cell-based or functional assay
Numbers only, in M.

// below: answered binders
H2aM11695N (antibody, mouse IgG2, V domains shown) VH: QVHLVQSGAEVKKPGASVKVSCKVSGNTLTELSMHWVRQAPGKGLEWMGGFDPEDGDTIYSQKFQGRVTLTEDTSTDTAYMELSSLRSEDTAVYYCSTVGGPTSDCWGQGTLVTVSS VL: DIQMTQSPSSLSASVGDRVTITCQASQDISNYLNWYQQKPGKAPKVLIFDASNLEPGVPSRFSGSGSGTDFTFTIISLQPEDIATYYCQQYDNLPITFGQGTRLDIK = 4.2e-11
H2aM11682N (antibody, mouse IgG2, V domains shown) VH: QEQLVQSGAEVKKPGASVKVSCKASGYTFTGYYIHWVRQAPGLGLEWMGWINPNSGGTKYAQKFQGRVTMTRDTSINTAYMELKRLKSDDSAVYYCARDAPPHDVFDIWGQGTLVTVSS VL: DIQMTQSPSSLSASVGDRVTITCRASQGIRNDLGWYQQKPGKAPKRLIYAASSLQIGVPSRFSGSGSGTEFTLTISSLQPEDFATYYCLQHNSYPLTFGGGTKVEIK = 4.6e-10
H2aM11684N (antibody, mouse IgG2, V domains shown) VH: QVQLQESGPGLVKPSQTLSLTCTVSGGSISSGAYHWSWIRQHPGKGLEWIGYIYYNGDTYYNPSLKSRVTISVDTSKNQFFLKVTSVTAADTAMYYCAGEKQLTAFDIWGQGTLVTVSS VL: VIQMTQSPSSLSASVGDRVTITCRASQDINNFLNWYQQKLGKAPKLLISDASNLQTGVPSRFSGSGSGTDFTFTISSLQPEDIAAYYCQQYDHFPYTFGQGTRLENN = 3.5e-11

Proceed to the following item.
### Prompt Name the reported IC50, inhibition of 500 pM hC5a in HEK293/Gα16/hC5aR1/NFAT-luc cells value associated with the binder H2aM11694N (antibody, mouse IgG2, V domains shown) VH: EVQLVESGGGVVRPGGSLRLSCAASGFTFDDYGMTWVRQAPGKGLEWVSGINWNGDSTEYSDSVKGRFTISRDNAKNSLYLQMNSLRAEDTAFYHCARENNWNFYFDYWGQGTLVTVSS VL: EIVMTQSPATLSVSRGERATLSCRASQSVSSNLAWYQQKLGQAPRLLIYGASTRATGIPARFSGSGSGTEFTLTISSLQSEDFAVYYCQQYNNWPWTFGQGTKVEIK
### Response 1.4e-10
